The following molecules are shown together with reported TGI values.
- Tested on: A498 renal
- METHOD: NCI tumour cell line growth inhibition, 48 h
METRIC: TGI (nM)

> print(dat)
                                   molecule  metric  measurement.units  relational.operator  number
1   NCCCCn1c2c(c3ccccc3c1=O)C(=O)c1ccccc1-2     TGI                 nM                    =    1710
2                   CC(=O)NCc1nc(C#N)c(N)o1     TGI                 nM                    >  100000
3  CC(C(=O)N1c2ccccc2Sc2ccccc21)N1c2ccccc2Sc2ccccc21 (stereo not given)     TGI                 nM                    >  100000
4                 C[N+](C)(N)CCC[N+](C)(C)N     TGI                 nM                    >  100000
5  CC[C@H](C)[C@H](NC(=O)[C@H]1CCCCN1C)C(=O)N(C)[C@H](CCc1nc(C(=O)N[C@@H](Cc2ccccc2)C[C@H](C)C(=O)OC)cs1)C(C)C     TGI                 nM                    =    2750

====

- System: NCI-H23 lung
- METHOD: NCI tumour cell line growth inhibition, 48 h
The following molecules are shown together with reported TGI values.
METRIC: TGI (µM)

MOLECULE	RELATIONAL_OPERATOR	NUMBER
C=C1CC[C@@]2(OC1)OC1C[C@H]3[C@@H]4CC=C5C[C@@H](O)CC(OC6OCC(OC(=O)[C@@H](O)[C@@H](C)CC)C(OC(C)=O)C6OC6OC(C)C(O)C(O)C6O)[C@]5(C)[C@H]4CC[C@]3(C)C1[C@@H]2C (some centres undefined)	=	6.57
NCC(=O)NC(CCCC(NC(=O)CN)P(=O)(O)O)P(=O)(O)O (centres undefined)	>	100
O=C(CC(=O)N1N=C(c2ccccc2)C(N=Nc2ccc(Cl)cc2)C1=O)Nc1ccccc1Cl (centres undefined)	=	97
CC(=O)[C@]1(O)Cc2c(O)c3c(c(O)c2C(OC2OC(C)C(O)C(O)C2F)C1)C(=O)c1ccccc1C3=O (some centres undefined)	=	0.303

====

The following compounds are shown together with reported TGI values.
- Test system: EKVX NSCLC
- METHOD: NCI tumour cell line growth inhibition, 48 h
METRIC: TGI

> print(dat)
                                   compound    result
1    CCOC(=O)Cn1sc2ncc([N+](=O)[O-])cc2c1=O  > 100 µM
2  Cc1ccc2nc3ccccc3c(C3C4C(=O)N(c5ccc(Br)cc5Cl)C(=O)C4ON3C(C(N)=O)c3ccccc3)c2c1 (stereo not given)   15.5 µM
3  Cc1ccccc1Nc1cn(COCc2ccccc2)c(=O)[nH]c1=O  > 100 µM
4  CCOC(=O)NC(Nc1ccc(S(=O)(=O)Nc2ncccn2)cc1)(C(=O)OCC)C(F)(F)F (stereo not given)  > 100 µM
5  CSc1nc(NC2OC(COC(C)=O)C(OC(C)=O)C(OC(C)=O)C2OC(C)=O)c2c(OC(C)=O)c(C)c(=O)oc2n1 (stereo not given)  > 100 µM
